target: human sphingosine-1-phosphate receptor 1 (S1P1) (Homo sapiens (Human)); test: β-Arrestin2 recruitment assay (PathHunter), S1P1 CHO-K1 cells; type: cell-based; conditions: β-arrestin2 recruitment, S1P1 CHO-K1 cells
Sequence (P21453 whole entry, looked up): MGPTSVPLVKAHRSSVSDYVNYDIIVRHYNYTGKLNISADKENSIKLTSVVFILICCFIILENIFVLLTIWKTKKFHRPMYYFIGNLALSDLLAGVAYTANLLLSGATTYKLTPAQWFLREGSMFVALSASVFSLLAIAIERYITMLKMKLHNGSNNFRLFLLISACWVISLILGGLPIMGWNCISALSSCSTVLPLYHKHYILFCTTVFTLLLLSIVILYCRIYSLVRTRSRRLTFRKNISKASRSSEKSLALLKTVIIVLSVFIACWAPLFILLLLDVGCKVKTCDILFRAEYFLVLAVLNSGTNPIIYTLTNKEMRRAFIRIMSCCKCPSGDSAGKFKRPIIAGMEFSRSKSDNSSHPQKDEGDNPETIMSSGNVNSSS
Sequence (P32121 whole entry partner, looked up): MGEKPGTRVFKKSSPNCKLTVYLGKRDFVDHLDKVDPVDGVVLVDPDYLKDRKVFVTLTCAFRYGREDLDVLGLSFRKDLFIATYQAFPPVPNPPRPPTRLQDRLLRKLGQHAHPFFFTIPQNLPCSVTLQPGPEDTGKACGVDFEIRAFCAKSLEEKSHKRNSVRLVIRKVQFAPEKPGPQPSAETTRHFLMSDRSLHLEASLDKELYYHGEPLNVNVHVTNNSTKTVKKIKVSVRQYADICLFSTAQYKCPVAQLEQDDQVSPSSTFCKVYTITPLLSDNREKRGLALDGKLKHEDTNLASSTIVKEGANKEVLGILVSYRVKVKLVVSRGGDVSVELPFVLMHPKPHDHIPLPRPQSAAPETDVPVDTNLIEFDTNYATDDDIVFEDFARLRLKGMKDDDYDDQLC
metric.name: hS1P1 B-arrestin2 pEC50

Measured hS1P1 B-arrestin2 pEC50, `O=C1CCc2cc(-c3nc(-c4cccnc4)no3)ccc2N1` : <5

Measured hS1P1 B-arrestin2 pEC50, `CCC1(CC)CC(=O)c2cc(-c3nc(-c4ccc(O)nc4)no3)ccc2O1` : <5

Measured hS1P1 B-arrestin2 pEC50, `CCC1(CC)C/C(=N/O)c2cc(-c3nc(-c4cccnc4)no3)ccc2O1` : <5

Measured hS1P1 B-arrestin2 pEC50, `C=CCNc1ccc(-c2nc(-c3ccc4c(c3)CCC(=O)N4)no2)cc1C#N` : >5

Measured hS1P1 B-arrestin2 pEC50, COc1ccc(-c2noc(-c3ccc4c(c3)nnn4CC(C)(C)O)n2)c(C)c1 [Compound 26] : >5

Measured hS1P1 B-arrestin2 pEC50, `COc1cccc(-c2csc(-c3ccc4c(ccn4C(C)C)c3)n2)c1` : <5

Measured hS1P1 B-arrestin2 pEC50, `Clc1ccc(-c2noc(-c3ccc4c(c3)nnn4C3CCOCC3)n2)s1` : <5

Measured hS1P1 B-arrestin2 pEC50, `CC(C)n1ccc2cc(-c3nc(-c4ccccc4OC(F)(F)F)no3)ccc21` : >5

Measured hS1P1 B-arrestin2 pEC50, `COc1ccc(-c2noc(-c3ccc4c(c3)nnn4C3CCCCC3)n2)cc1C(F)(F)F` : <5
